- Subject of test: active CDK2 (with T160 phosphorylated) (Homo sapiens (Human), UniProt P24941 1-298)
- Assay info: SPR, ligand CDK2 (pT160), no additive
Bridge positions count the residues as written; N and C are the ends.
Reported endpoint: Kd
Reply with the number and its unit after it.

Name the recorded Kd for Ac-DPAWWVCAIAAIECSDV-NH2 (bridge 7-14; not fully specified (bridges), Cluster C51) [FP19711] . 1700 nM

Source of measurements: patent US20240376151A1
